# tgt: human plasma kallikrein (Homo sapiens)
# Sequence (P03952 391-638 limits assumed): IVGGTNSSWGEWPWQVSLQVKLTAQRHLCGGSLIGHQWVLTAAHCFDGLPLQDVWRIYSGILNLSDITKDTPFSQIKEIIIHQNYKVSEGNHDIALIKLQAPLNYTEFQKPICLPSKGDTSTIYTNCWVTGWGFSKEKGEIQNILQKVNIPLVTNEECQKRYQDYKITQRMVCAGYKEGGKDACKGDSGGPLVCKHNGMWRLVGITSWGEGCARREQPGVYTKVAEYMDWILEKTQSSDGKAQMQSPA
# Sequence (P03952 20-390 partner limits assumed): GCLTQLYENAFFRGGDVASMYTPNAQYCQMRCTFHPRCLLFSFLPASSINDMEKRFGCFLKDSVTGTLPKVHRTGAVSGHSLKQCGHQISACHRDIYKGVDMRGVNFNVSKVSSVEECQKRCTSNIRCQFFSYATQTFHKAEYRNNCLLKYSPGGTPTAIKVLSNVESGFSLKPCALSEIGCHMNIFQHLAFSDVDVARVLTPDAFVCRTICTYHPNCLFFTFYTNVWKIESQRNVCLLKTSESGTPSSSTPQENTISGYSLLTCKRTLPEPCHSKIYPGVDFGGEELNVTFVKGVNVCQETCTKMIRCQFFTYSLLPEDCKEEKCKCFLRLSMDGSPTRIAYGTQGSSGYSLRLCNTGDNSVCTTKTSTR
# method-summary: Anti-plasma kallikrein activity: inhibition of S-2302 decomposition
# Type: biochemical
# experimental-parameters: Table 2; S-2302 substrate, pH 7.8, 37° C.; read-out: Plasma Kallikrein S-2302 (I50)
Counter-ions that a name gives are not always drawn.
Entries and their IC50 values follow.
Return type: number; implicit unit µM.

# example entries with known answers
NC[C@H]1CC[C@H](C(=O)N[C@@H](Cc2ccc(OCc3ccccc3)cc2)C(=O)Nc2ccc(S(N)(=O)=O)cc2)CC1 [Compound No. 47, hydrochloride] = 4.5
CCOC(=O)c1cccc(NC(=O)[C@H](Cc2ccc(OCc3ccccc3)cc2)NC(=O)[C@H]2CC[C@H](CN)CC2)c1 = 2.4

Here's the next entry for you.
Prompt: Quick one: IC50 of NC[C@H]1CC[C@H](C(=O)NC(Cc2ccc([N+](=O)[O-])cc2)C(=O)Nc2ccc(C(=O)c3ccccc3)cc2)CC1 (mixture of isomers) [Compound No. 31, hydrochloride] ?
Response: 6

----------
Entries and their pIC50 values follow.
# tgt: UniProtKB P00747
# Sequence (P00747 581-810 limits assumed): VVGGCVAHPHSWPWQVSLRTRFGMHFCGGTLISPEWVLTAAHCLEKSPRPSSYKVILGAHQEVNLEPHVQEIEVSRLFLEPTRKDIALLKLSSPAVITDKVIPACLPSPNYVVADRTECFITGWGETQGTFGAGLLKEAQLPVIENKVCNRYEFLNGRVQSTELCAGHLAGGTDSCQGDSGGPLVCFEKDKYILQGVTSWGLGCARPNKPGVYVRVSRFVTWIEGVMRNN
# Sequence (P00747 97-580 partner limits assumed): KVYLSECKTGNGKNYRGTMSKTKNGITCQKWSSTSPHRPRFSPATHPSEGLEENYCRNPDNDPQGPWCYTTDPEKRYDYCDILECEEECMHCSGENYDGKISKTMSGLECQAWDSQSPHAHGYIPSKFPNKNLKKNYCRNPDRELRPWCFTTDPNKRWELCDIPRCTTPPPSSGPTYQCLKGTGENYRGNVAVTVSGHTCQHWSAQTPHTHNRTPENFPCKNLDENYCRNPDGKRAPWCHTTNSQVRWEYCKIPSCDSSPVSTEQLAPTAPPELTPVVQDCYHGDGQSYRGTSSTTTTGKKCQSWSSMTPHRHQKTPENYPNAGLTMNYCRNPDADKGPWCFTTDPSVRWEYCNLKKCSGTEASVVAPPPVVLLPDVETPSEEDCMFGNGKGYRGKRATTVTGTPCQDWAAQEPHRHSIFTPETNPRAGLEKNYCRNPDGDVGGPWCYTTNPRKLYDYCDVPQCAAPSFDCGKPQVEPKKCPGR
# method-summary: Antiplasmin activity: inhibition of fibrin decomposition
# Type: biochemical
# experimental-parameters: Table 2; concentration at which fibrin dissolution time is extended twice, pH 7.4, 37° C.; read-out: Plasmin Fibrin (I50)
Where a name gives a salt, the structure may show the parent alone.
// pIC50 is dimensionless: -log10 of concentration (M)

# example entries with known answers
CC(=O)c1ccc(NC(=O)[C@H](Cc2ccc(Oc3ccc([N+](=O)[O-])cn3)cc2)NC(=O)[C@H]2CC[C@H](CN)CC2)cc1 [Compound No. 121, hydrochloride] = 6.37
CC1CCC(NC(=O)C(Cc2ccc(Oc3ccc([N+](=O)[O-])cc3)cc2)NC(=O)c2ccc(CN)cc2)CC1C (stereo not drawn) = 6.57

Here's the next entry for you.
Prompt: Quick one: pIC50 of CC(=O)c1ccc(NC(=O)[C@H](Cc2ccc(OCc3ccc(F)cc3)cc2)NC(=O)[C@H]2CC[C@H](CN)CC2)cc1 ?
Response: 6.39

----------
# tgt: human urokinase (Homo sapiens)
# method-summary: biochemical
# experimental-parameters: Table 2; S-2444 substrate, pH 8.8, 37° C.; read-out: Urokinase S-2444 (I50)
Counter-ions that a name gives are not always drawn.
measured-metric: IC50

# example entries with known answers
CC1CCC(NC(=O)C(Cc2ccc(OCc3ccc(F)cc3)cc2)NC(=O)c2ccc(CN)cc2)CC1C (stereo not drawn) = > 150 µM
NCc1ccc(C(=O)N[C@@H](Cc2ccc(OCc3ccccc3)cc2)C(=O)NCc2ccncc2)cc1 [Compound No. 96, dihydrochloride] = > 500 µM
CC1CCC(NC(=O)C(Cc2ccc(Oc3ccc([N+](=O)[O-])cc3)cc2)NC(=O)c2ccc(CN)cc2)CC1C (stereo not drawn) = > 200 µM
NCc1ccc(C(=O)N[C@@H](Cc2ccc(OCc3ccccc3)cc2)C(=O)Nc2ccc(C(=O)O)cc2)cc1 = > 1000 µM
Cc1ccc(NC(=O)[C@H](Cc2ccc(OCc3ccccc3)cc2)NC(=O)c2ccc(CN)cc2)cc1C = > 200 µM

Prompt: Quick one: IC50 of CCOC(=O)C1CCCC(NC(=O)[C@H](Cc2ccc(OCc3cccc(Cl)c3)cc2)NC(=O)c2ccc(CN)cc2)C1 (stereo partly drawn) ?
Response: > 200 µM

Prompt: Quick one: IC50 of CC1CCC(NC(=O)[C@H](Cc2ccc(OCc3ccccc3)cc2)NC(=O)c2ccc(CN)cc2)CC1 (stereo partly drawn) ?
Response: > 400 µM

Prompt: Quick one: IC50 of NCc1ccc(C(=O)N[C@@H](Cc2ccc(OCc3ccccc3)cc2)C(=O)NC2CCCCC2)cc1 [Compound No. 114, hydrochloride] ?
Response: > 100 µM

Prompt: Quick one: IC50 of Cc1ccc(NC(=O)[C@H](Cc2ccc(OCc3ccccc3)cc2)NC(=O)[C@H]2CC[C@H](CN)CC2)cc1C ?
Response: > 150 µM
